The origin of these recorded values is patent US20240115557A1.

Overview of recorded Z score Rep1 for various compounds
- tgt: SpCas9 (Streptococcus pyogenes serotype M1, UniProt Q99ZW2)
- Sequence (Q99ZW2 whole entry): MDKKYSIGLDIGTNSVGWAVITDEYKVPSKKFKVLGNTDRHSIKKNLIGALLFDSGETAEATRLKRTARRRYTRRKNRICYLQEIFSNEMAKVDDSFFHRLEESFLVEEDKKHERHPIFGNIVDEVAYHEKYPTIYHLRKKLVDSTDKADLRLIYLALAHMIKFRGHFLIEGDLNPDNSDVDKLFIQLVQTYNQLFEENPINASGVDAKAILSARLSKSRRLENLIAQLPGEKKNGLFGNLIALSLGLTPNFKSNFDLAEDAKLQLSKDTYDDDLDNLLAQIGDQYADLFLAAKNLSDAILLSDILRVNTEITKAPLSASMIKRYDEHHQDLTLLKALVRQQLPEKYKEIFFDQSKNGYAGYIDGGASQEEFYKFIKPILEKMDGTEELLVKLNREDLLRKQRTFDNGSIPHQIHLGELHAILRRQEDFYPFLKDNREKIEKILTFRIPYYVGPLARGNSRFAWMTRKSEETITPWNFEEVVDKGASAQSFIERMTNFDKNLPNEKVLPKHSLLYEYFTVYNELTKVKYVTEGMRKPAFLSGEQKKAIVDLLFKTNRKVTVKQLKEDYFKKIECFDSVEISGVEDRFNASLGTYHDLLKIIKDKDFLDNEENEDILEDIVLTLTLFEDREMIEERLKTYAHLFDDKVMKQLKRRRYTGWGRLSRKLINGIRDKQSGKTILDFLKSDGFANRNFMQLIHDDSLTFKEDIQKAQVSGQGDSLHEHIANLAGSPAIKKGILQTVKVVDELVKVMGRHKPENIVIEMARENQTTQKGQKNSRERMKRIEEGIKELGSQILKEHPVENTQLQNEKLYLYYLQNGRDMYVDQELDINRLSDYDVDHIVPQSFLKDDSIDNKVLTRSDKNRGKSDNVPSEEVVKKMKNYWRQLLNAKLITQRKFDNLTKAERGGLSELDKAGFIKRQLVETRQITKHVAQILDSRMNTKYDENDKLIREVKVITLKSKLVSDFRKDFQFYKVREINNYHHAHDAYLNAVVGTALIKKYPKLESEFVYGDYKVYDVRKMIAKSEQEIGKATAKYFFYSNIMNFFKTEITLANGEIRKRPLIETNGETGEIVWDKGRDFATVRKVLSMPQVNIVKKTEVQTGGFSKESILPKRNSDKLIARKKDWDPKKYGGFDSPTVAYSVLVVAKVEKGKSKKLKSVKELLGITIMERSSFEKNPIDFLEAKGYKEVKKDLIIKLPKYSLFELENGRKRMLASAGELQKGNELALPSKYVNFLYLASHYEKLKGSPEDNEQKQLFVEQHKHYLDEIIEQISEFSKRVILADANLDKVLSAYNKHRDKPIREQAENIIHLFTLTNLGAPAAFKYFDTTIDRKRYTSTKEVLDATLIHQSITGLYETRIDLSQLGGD
- experimentalDetails: eGFP disruption assay, SpCas9, U2OS.eGFP.PEST cells
- Format: cell-based
- measurementConditions: eGFP assay, replicate 1
- Source text: In some embodiments, the secondary assay may be an EGFP disruption assay. In such assay, a quantitative human cell-based reporter assay that enables rapid quantitation of targeted nuclease activities is used to characterize off-target cleavage of Cas9-based RNA guided endonucleases. […] Primary and secondary screening. […] In this assay, any compound that inhibited SpCas9 would rescue the loss of eGFP fluorescence. […]
propertyName: Z score Rep1

>>> df
                               smilesstring  propertyname  observedvalue
0  Cc1nc2ccccc2c(C)c1CC(=O)N1CCN(c2ccc(O)cc2)CC1  Z score Rep1           3.50
1  O=C(CCS(=O)(=O)c1ccc(Cl)cc1)Nc1nc(-c2ccccn2)cs1  Z score Rep1           3.12
2  NC1=C(c2nc3ccccc3s2)C(=O)CN1N=Cc1ccc(-c2ccc(S(=O)(=O)Nc3ncccn3)cc2)o1  Z score Rep1           2.50
3  Cc1ccccc1C(=O)Nc1nc2ccc(S(N)(=O)=O)cc2s1  Z score Rep1           3.88
4  O=C(CCS(=O)(=O)c1ccccc1)Nc1nc(-c2ccncc2)cs1  Z score Rep1           3.83
5  O=C(CCS(=O)(=O)c1ccc(Cl)cc1)Nc1nc(-c2ccncc2)cs1  Z score Rep1           5.65
6  O=C(CSc1nccn1-c1cccc(F)c1)N1CCN(c2ccc(O)cc2)CC1  Z score Rep1           3.93
7                  CCN1C(=O)c2cccc3cccc1c23  Z score Rep1           3.76

* * *

Overview of recorded Normalized Z rep2 for various compounds
- tgt: SpCas9 (Streptococcus pyogenes serotype M1, UniProt Q99ZW2)
- experimentalDetails: eGFP disruption assay, SpCas9, U2OS.eGFP.PEST cells
- Format: cell-based
- measurementConditions: replicate 2
propertyName: Normalized Z rep2

In [3]: df
Out[3]:
                                    compound  observedvalue
 0  Cl.Cl.Fc1cc(-c2cccc3ncc(-c4cnn(C5CCNCC5)c4)nc23)cc(F)c1CN1CCOCC1          −0.57
 1    COc1ccc(Cc2nnc3sc(-c4ccccc4OC)nn23)cc1          −0.23
 2         CCC(=O)Nc1ccccc1Sc1cc(C)nc2ncnn12          −0.23
 3      Nc1c(C(=O)N2CCCCC2)sc(=S)n1Cc1ccccc1          −0.36
 4  COc1ccc(C2CNC(=O)C2)cc1OC1CCCC1 (centres unmarked)          −0.28
 5  CS(=O)(=O)Nc1cnc(N2CCC(CCN3CCOCC3)CC2)c(C(=O)O)c1          −0.11
 6      O=C(O)c1cc(N2CCCC2)ccc1NC(=O)C1CCCC1          −0.23
 7    COc1ccc(-c2nnc3sc(-c4cccnc4)nn23)cc1OC          −0.11
 8   c1ccc(-c2nnc3sc(-c4cc5ccccc5o4)nn23)nc1          −0.22
 9  CN(C)S(=O)(=O)Nc1ccc(N2CCCC(CN3CCCC3)C2)c(C(=O)O)c1 (centres unmarked)          −0.35
10  Cn1nc(-c2ccccc2F)c2cc(C(=O)Oc3ccc4cnccc4c3)sc21           0.01
11  CC(C)CNC(=O)c1ccc(Oc2ccnc(-c3ccc(F)cc3)n2)cc1          −0.15
12  NC(=O)c1c(NC(=O)COCc2cc(-c3ccc4c(c3)OCO4)on2)sc2c1CCCC2          −0.32
13  CCC(C)NC(=O)c1cccc(Oc2cc(-c3ccccc3)ncn2)c1 (centres unmarked)          −0.37
14      Brc1cccc(-c2nn3c(-c4ccccn4)nnc3s2)c1          −0.06
15  O=C(Nc1ccc(F)c(Cl)c1)c1ccc(Oc2ccnc(-c3ccc(F)cc3)n2)cc1          −0.14
16  COc1ccc(-c2ccc3ncc4c(c3c2)n(-c2ccc(N3CCNCC3)c(C(F)(F)F)c2)c(=O)n4C)cn1.O=C(O)C=CC(=O)O          −4.01

* * *

- tgt: SpCas9 (Streptococcus pyogenes serotype M1)
- experimentalDetails: eGFP disruption assay, SpCas9, U2OS.eGFP.PEST cells
- Format: cell-based
- measurementConditions: replicate 1, raw readout
propertyName: SpCas9 eGFP disruption Rep1

>>> df
                                    molecule                 propertyname  observedvalue
 0  COc1ccc(-c2nn3c(-c4ccc5ccccc5n4)nnc3s2)cc1OC  SpCas9 eGFP disruption Rep1         66.254
 1  COc1ccc(S(=O)(=O)CCC(=O)Nc2nc(-c3ccncc3)cs2)cc1  SpCas9 eGFP disruption Rep1         48.322
 2     Fc1cccc(-c2nnc3sc(CCCc4ccccc4)nn23)c1  SpCas9 eGFP disruption Rep1         63.741
 3    C=Cc1ccc(CSC2=NS(=O)(=O)c3ccccc3N2)cc1  SpCas9 eGFP disruption Rep1         72.619
 4   c1ccc(-c2nnc3sc(-c4cc5ccccc5o4)nn23)nc1  SpCas9 eGFP disruption Rep1         63.743
 5  Fc1cccc(-c2nn3c(-c4ccc5ccccc5n4)nnc3s2)c1  SpCas9 eGFP disruption Rep1         53.347
 6  COc1ccc(-c2cc(N3CCN(C(=O)c4ccc(C(C)(C)C)cc4)CC3)ncn2)cc1  SpCas9 eGFP disruption Rep1         74.104
 7            Cc1ccccc1OCc1nn2c(C(C)C)nnc2s1  SpCas9 eGFP disruption Rep1         55.746
 8  O=C(Nc1nc(-c2ccccc2)c(C(=O)c2ccccc2)s1)c1ccc2c(c1)OCCO2  SpCas9 eGFP disruption Rep1         74.347
 9  CC(C)NC(=O)CN1CCN(c2ccc(C(=O)O)cc2NC(=O)c2ccccc2Cl)CC1  SpCas9 eGFP disruption Rep1         53.848
10  Cl.Cl.Fc1cc(-c2cccc3ncc(-c4cnn(C5CCNCC5)c4)nc23)cc(F)c1CN1CCOCC1  SpCas9 eGFP disruption Rep1         62.196
11  O=C(NC1CCCC1)c1cccc(Oc2cc(-c3ccccc3)ncn2)c1  SpCas9 eGFP disruption Rep1         71.095
12  Cc1cccc(C(=O)Nc2ccccc2Sc2cc(C)nc3ncnn23)c1  SpCas9 eGFP disruption Rep1         55.407
13  NC(=O)c1c(NC(=O)COCc2cc(-c3ccc4c(c3)OCO4)on2)sc2c1CCCC2  SpCas9 eGFP disruption Rep1         62.484
14  CCCN1CCN(c2ccc(C(=O)O)cc2NC(=O)c2ccccc2Cl)CC1  SpCas9 eGFP disruption Rep1         63.051
15  CCn1c(=O)c(C(=O)Nc2nccc(C)n2)c(O)c2ccccc21  SpCas9 eGFP disruption Rep1         63.431
16  CNS(=O)(=O)c1ccc2nc(NC(=O)c3ccc(N4C(=O)CCC4=O)cc3)sc2c1  SpCas9 eGFP disruption Rep1         57.872
17        c1ccc(Cc2nn3c(-c4cccnc4)nnc3s2)cc1  SpCas9 eGFP disruption Rep1          64.43
18       Clc1ccccc1OCc1nn2c(-c3ccccn3)nnc2s1  SpCas9 eGFP disruption Rep1         57.663
19  Cc1[nH]nc2ccc(-c3cncc(OCC(N)Cc4ccccc4)c3)cc12 (stereo not drawn)  SpCas9 eGFP disruption Rep1         10.416
20  Cc1nn(-c2ccccc2)c(C)c1CCc1nn2c(-c3cccc(F)c3)nnc2s1  SpCas9 eGFP disruption Rep1         58.376
21  CN(C)S(=O)(=O)Nc1ccc(N2CCC(C(N)=O)(N3CCCCC3)CC2)c(C(=O)O)c1  SpCas9 eGFP disruption Rep1         59.182
22  COc1ccc(-c2ccc3ncc4c(c3c2)n(-c2ccc(N3CCNCC3)c(C(F)(F)F)c2)c(=O)n4C)cn1.O=C(O)C=CC(=O)O  SpCas9 eGFP disruption Rep1              0
23  CS(=O)(=O)Nc1cnc(N2CCC(C(N)=O)(N3CCCCC3)CC2)c(C(=O)O)c1  SpCas9 eGFP disruption Rep1         62.398
24  Fc1cccc(-c2nnc3sc(-c4ccc5ccccc5n4)nn23)c1  SpCas9 eGFP disruption Rep1         60.296
25  CC(C)CNC(=O)c1ccc(Oc2ccnc(-c3ccc(F)cc3)n2)cc1  SpCas9 eGFP disruption Rep1         76.108
26      Brc1cccc(-c2nn3c(-c4cccnc4)nnc3s2)c1  SpCas9 eGFP disruption Rep1         67.429
27          Cc1nc2ccccc2n1Cc1nnc2n1N=C(N)CS2  SpCas9 eGFP disruption Rep1         60.982
28      O=C(O)c1cc(N2CCCC2)ccc1NC(=O)C1CCCC1  SpCas9 eGFP disruption Rep1         57.803
29  Cc1nn(-c2ccccc2)c(C)c1CCc1nn2c(-c3cnccn3)nnc2s1  SpCas9 eGFP disruption Rep1          64.17
30  CCN(Cc1ccccc1)c1ccc(NS(=O)(=O)c2ccc(OC)cc2)cc1C(=O)O  SpCas9 eGFP disruption Rep1         55.595
31  NC(=O)c1sc(=S)n2c1[nH]c(=O)c1cc(Cl)ccc12  SpCas9 eGFP disruption Rep1         61.541
32  Cc1ccc(C(C)NC(=O)c2cccc(Oc3cc(-c4ccccc4)ncn3)c2)cc1 (stereo not drawn)  SpCas9 eGFP disruption Rep1         74.182
